Assay: Metabolic stability in rat liver microsomes assessed as compound metabolized at 5 uM measured after 15 mins
Format: ADME
Settings: read-out: Drug metabolism
RECORDED_METRIC: metabolised at […], 5 µM (%)

MOL	metabolised at […], 5 µM [%]
Fc1ccc([C@H]2CC[C@@H](NCc3ccn4c(CC5CC5)nnc4c3C(F)(F)F)CC2)c(F)c1	84
Fc1ccc(OC2CCN(Cc3ccn4c(CC5CC5)nnc4c3C(F)(F)F)CC2)c(F)c1	57
Fc1ccccc1C1CCN(Cc2ccn3c(CC4CC4)nnc3c2C(F)(F)F)CC1	85
Fc1ccc(N2CCCN(Cc3ccn4c(CC5CC5)nnc4c3C(F)(F)F)CC2)c(F)c1	99
FC(F)(F)c1c(CN2CCC(c3ccccc3Cl)CC2)ccn2c(CC3CC3)nnc12	90
Fc1cccc(F)c1C1CCN(Cc2ccn3c(CC4CC4)nnc3c2C(F)(F)F)CC1	75

###

Experiment: Metabolic stability in human liver microsomes assessed as compound metabolized at 5 uM measured after 15 mins
Format: ADME
Details: read-out: Drug metabolism
RECORDED_METRIC: metabolised at […], 5 µM (%)

// solved cases for metabolised at […], 5 µM follow
COMPOUND	UNIT_DESCRIPTOR	metabolised at […], 5 µM
COC1(c2ccccc2)CCN(Cc2ccn3c(CC4CC4)nnc3c2C(F)(F)F)CC1	%	69
Fc1ccc([C@H]2CC[C@@H](NCc3ccn4c(CC5CC5)nnc4c3C(F)(F)F)CC2)c(F)c1	%	81

(I) Fc1ccc(COC2CCN(Cc3ccn4c(CC5CC5)nnc4c3C(F)(F)F)CC2)c(F)c1
(II) CC1(c2ccccc2)CCCN(Cc2ccn3c(CC4CC4)nnc3c2C(F)(F)F)C1 (centres undefined)
# compare metabolised at […], 5 µM for I vs II ; return the one with the smaller value Selection: enter the item's label.
I
